assay-method-text: qHTS RealTime-Glo MT Cell Viability Assay in HEK293 cells - 16 hour (AID 1224872); note: top concentration of the series differs between compounds; % is set by controls: 0 for no effect and ±100 for the full control effect; nearly all actives have a fitted effect of over 50% in size
condition-set: RealTime-Glo luminescence; series mostly up to 76.8 µM
Records with an inconclusive call do not appear. The source made the active and inactive calls. Calls come from the whole dose curve; as a rule, active = well fitted cell-killing curve with a large enough effect in the repeat runs; inconclusive = weak or mixed curves, or effect the other way; inactive = flat fitted curve, though single readings scatter.

{"compound": "NO", "activity change, negative = cytotoxicity": "inactive"}
{"compound": "CCOCC(C)O (configuration not stated)", "activity change, negative = cytotoxicity": "inactive"}
{"compound": "Nc1ccn([C@@H]2O[C@H](CO)[C@@H](O)C2O)c(=O)n1 (some centres not stated)", "activity change, negative = cytotoxicity": "inactive"}
{"compound": "CO[C@@]1(NC(=O)CSC[C@@H](N)C(=O)O)C(=O)N2C(C(=O)O)=C(CSc3nnnn3C)CS[C@@H]21", "activity change, negative = cytotoxicity": "inactive"}
{"compound": "c1coc(CNc2ncnc3nc[nH]c23)c1", "activity change, negative = cytotoxicity": "inactive"}
{"compound": "CC(C)c1ccc2ncccc2c1", "activity change, negative = cytotoxicity": "inactive"}
{"compound": "CCCCN1C=CN(C)C1", "activity change, negative = cytotoxicity": "5.82% [at 15.8 µM] (inactive)"}
{"compound": "CN(C)[C@@H]1C(=O)C(C(=O)NCN2CCCC2)=C(O)[C@@]2(O)C(=O)C3=C(O)c4c(O)cccc4[C@@](C)(O)C3C[C@@H]12 (some centres not stated)", "activity change, negative = cytotoxicity": "inactive"}
{"compound": "NCCCC[C@H](N[C@@H](CCc1ccccc1)C(=O)O)C(=O)N1CCC[C@H]1C(=O)O", "activity change, negative = cytotoxicity": "inactive"}
{"compound": "c1ccc2sc(SN3CCOCC3)nc2c1", "activity change, negative = cytotoxicity": "inactive"}
{"compound": "C=CN1CCCCCC1=O", "activity change, negative = cytotoxicity": "inactive"}
{"compound": "CC(C)NNC(=O)c1ccncc1", "activity change, negative = cytotoxicity": "inactive"}
{"compound": "O=C(CO)[C@@H](O)[C@H](O)[C@@H](O)CO", "activity change, negative = cytotoxicity": "inactive"}
{"compound": "COc1cc(C(=O)OC(COCCC(C)C)CN2CCOCC2)cc(OC)c1OC (configuration not stated)", "activity change, negative = cytotoxicity": "inactive"}
{"compound": "CC1=NN(c2cccc(S(=O)(=O)O)c2)C(=O)C1", "activity change, negative = cytotoxicity": "inactive"}
{"compound": "Cc1c(N)c(=O)n(-c2ccccc2)n1C", "activity change, negative = cytotoxicity": "inactive"}
{"compound": "CCCOC(=O)CC", "activity change, negative = cytotoxicity": "inactive"}
{"compound": "O=C(O)CNC(=O)c1ccc(CO)o1", "activity change, negative = cytotoxicity": "inactive"}
{"compound": "CC1=NS(=O)(=O)c2cc(Cl)ccc2N1", "activity change, negative = cytotoxicity": "inactive"}
{"compound": "CCC(C)(CCCC(C)C)OC(C)=O (configuration not stated)", "activity change, negative = cytotoxicity": "inactive"}
{"compound": "O=[N+]([O-])c1cncn1CCN1CCOCC1", "activity change, negative = cytotoxicity": "inactive"}
{"compound": "CCOc1c(N2CCOCC2)cnn(C)c1=O", "activity change, negative = cytotoxicity": "inactive"}
{"compound": "COc1cccc(OC)c1C(=O)N[C@@H]1C(=O)N2[C@@H]1SC(C)(C)[C@@H]2C(=O)O", "activity change, negative = cytotoxicity": "inactive"}
{"compound": "CC(C)C1CCC(O)CC1 (configuration not stated)", "activity change, negative = cytotoxicity": "inactive"}
{"compound": "CC(C)[C@H]1CC[C@@H](C)CC1=O", "activity change, negative = cytotoxicity": "inactive"}
{"compound": "CC(N)C12CC3CC(CC(C3)C1)C2 (configuration not stated)", "activity change, negative = cytotoxicity": "inactive"}
{"compound": "CCCC[N+](C)(CCCC)CCCC", "activity change, negative = cytotoxicity": "inactive"}

---

tgt: Cytochrome P450 2C9 (Homo sapiens)
assay-method-text: Cytochrome P450 Family 2 Subfamily C Member 9 (CYP2C9) small molecule antagonists: luciferase reporter qHTS assay (AID 1671198); note: nearly all actives have a fitted effect of over 50% in size; note: potency is the fitted concentration of half-maximal effect
condition-set: P450-Glo CYP2C9 enzyme assay, luciferin luminescence; series mostly up to 115 µM
Results filed as inconclusive are left out. Calls of active or inactive are those of the source. Calls come from the whole dose curve; as a rule, active = well fitted inhibition curve with a large enough effect in the repeat runs; inconclusive = weak or mixed curves; inactive = no such curve, though single readings can be large or run the other way.

{"compound": "Cc1onc(-c2c(Cl)cccc2Cl)c1C(=O)Cl", "Potency": "17.4 µM (active)"}
{"compound": "COc1cc(C(=O)OC(COCCC(C)C)CN2CCOCC2)cc(OC)c1OC (stereo unspecified)", "Potency": "3.09 µM (active)"}
{"compound": "NC(=O)N1c2ccccc2CC(=O)c2ccccc21", "Potency": "inactive"}
{"compound": "COCCOC[C@H](CC1(C(=O)NC2CCC(C(=O)O)CC2)CCCC1)C(=O)Oc1ccc2c(c1)CCC2 (stereo partly specified)", "Potency": "inactive"}
{"compound": "NC(=O)Cc1cccc2ccccc12", "Potency": "inactive"}
{"compound": "CCCc1ncc(C[n+]2ccccc2C)c(N)n1", "Potency": "inactive"}

---

assay-method-text: qHTS assay to identify small molecule antagonists of the sonic hedgehog signaling (Shh) pathway (AID 1259369); note: nearly all actives have a fitted effect of over 45% in size
condition-set: NIH/3T3 Gli1-Luc reporter, Shh antagonist, luminescence 24 h; series mostly up to 92.4 µM
Records with an inconclusive call do not appear. Active and inactive are the calls of the source. Calls come from the whole dose curve.
Labels: active, inactive

{"molecule": "Cc1ccnc(NS(=O)(=O)c2ccc(N)cc2)n1", "category": "inactive"}
{"molecule": "C=CCCC(=O)O", "category": "inactive"}
{"molecule": "CCC1C(=O)OCC1Cc1cncn1C (stereo not drawn)", "category": "inactive"}
{"molecule": "O=C(CO)[C@@H](O)[C@H](O)[C@H](O)CO", "category": "inactive"}
{"molecule": "CCOC(=O)OC(C)OC1=C(C(=O)Nc2ccccn2)N(C)S(=O)(=O)c2ccccc21 (stereo not drawn)", "category": "inactive"}
{"molecule": "c1ccc(Cc2ccccc2)cc1", "category": "inactive"}
{"molecule": "CCN(Cc1ccccc1)c1ccccc1", "category": "active"}
{"molecule": "CNCC(O)c1ccc(O)c(O)c1 (stereo not drawn)", "category": "inactive"}
{"molecule": "CCCCCC(=O)OCCc1ccccc1", "category": "inactive"}
{"molecule": "CO[C@@]1(NC(=O)CSC[C@@H](N)C(=O)O)C(=O)N2C(C(=O)O)=C(CSc3nnnn3C)CS[C@@H]21", "category": "inactive"}
{"molecule": "O=[N+]([O-])c1cncn1CCN1CCOCC1", "category": "inactive"}
{"molecule": "CC(C)(C)OC(=O)c1cccc(N)c1", "category": "inactive"}
{"molecule": "CO[Si](C)(OC)c1ccccc1", "category": "inactive"}

---

tgt: Cytochrome P450 2C9 (Homo sapiens) (UniProt P11712)
Sequence (P11712 whole entry, looked up): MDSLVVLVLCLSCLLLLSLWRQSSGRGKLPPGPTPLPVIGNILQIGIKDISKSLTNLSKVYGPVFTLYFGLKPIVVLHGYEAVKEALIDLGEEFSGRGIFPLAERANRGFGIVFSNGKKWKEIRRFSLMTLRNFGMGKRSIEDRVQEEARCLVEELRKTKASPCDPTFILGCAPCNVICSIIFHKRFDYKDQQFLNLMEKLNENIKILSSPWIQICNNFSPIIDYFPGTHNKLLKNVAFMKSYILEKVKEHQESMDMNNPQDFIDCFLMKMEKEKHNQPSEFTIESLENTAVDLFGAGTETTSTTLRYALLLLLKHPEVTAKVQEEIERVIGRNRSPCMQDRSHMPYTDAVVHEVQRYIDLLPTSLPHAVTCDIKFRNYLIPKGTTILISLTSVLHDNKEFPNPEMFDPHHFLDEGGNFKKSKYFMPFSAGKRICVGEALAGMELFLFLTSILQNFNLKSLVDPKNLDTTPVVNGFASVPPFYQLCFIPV
assay-method-text: Cytochrome P450 Family 2 Subfamily C Member 9 (CYP2C9) small molecule antagonists: luciferase reporter qHTS assay (AID 1671198); note: nearly all actives have a fitted effect of over 50% in size
condition-set: P450-Glo CYP2C9 enzyme assay, luciferin luminescence; series mostly up to 115 µM
Results filed as inconclusive are left out. The source made the active and inactive calls. The call rests on the fitted dose curve; in most records, active means well fitted inhibition curve with a large enough effect in the repeat runs; inconclusive means weak or mixed curves; inactive means no such curve, though single readings can be large or run the other way.
Labels: active, inactive

{"compound": "Nc1ccn([C@@H]2O[C@H](CO)[C@@H](O)C2O)c(=O)n1 (some centres not stated)", "category": "inactive"}
{"compound": "CCCC[N+](C)(CCCC)CCCC", "category": "inactive"}
{"compound": "COc1ccc2cc1Oc1cc3c(cc1OC)CC[N+](C)(C)[C@H]3Cc1ccc(cc1)Oc1c(OC)c(OC)cc3c1[C@@H](C2)[N+](C)(C)CC3", "category": "inactive"}
{"compound": "CCN(C=O)CC", "category": "inactive"}
{"compound": "C=C(C)C(=O)OCC1CCCO1 (configuration not stated)", "category": "inactive"}
{"compound": "COc1c(N2CCNC(C)C2)c(F)cc2c(=O)c(C(=O)O)cn(C3CC3)c12 (configuration not stated)", "category": "inactive"}
{"compound": "C=CCOCC(O)CO (configuration not stated)", "category": "inactive"}
{"compound": "O=C(CO)[C@@H](O)[C@H](O)[C@@H](O)CO", "category": "inactive"}
{"compound": "CC(C)CC(C)(N)C#N (configuration not stated)", "category": "inactive"}
{"compound": "CCN(Cc1ccccc1)c1ccccc1", "category": "active"}
{"compound": "CC(CO)(CO)[N+](=O)[O-]", "category": "inactive"}
{"compound": "CCCCS(=O)(=O)N[C@@H](Cc1ccc(OCCCCC2CCNCC2)cc1)C(=O)O", "category": "inactive"}

---

tgt: Nuclear receptor subfamily 1 group I member 2 (Homo sapiens)
assay-method-text: Human pregnane X receptor (PXR) small molecule agonists, qHTS assay (AID 1346982); note: nearly all actives have a fitted effect of over 35% in size; for activation: % is set by controls: 0 for no effect and ±100 for the full control effect
condition-set: PXR-Luc HepG2, CYP3A4 luciferase reporter, 24 h; series mostly up to 92.4 µM
Records with an inconclusive call do not appear. Active and inactive are the calls of the source. The call rests on the fitted dose curve; in most records, active means well fitted activation curve with a large enough effect in the repeat runs; inconclusive means weak or mixed curves; inactive means no such curve, though single readings can be large or run the other way.
Labels: Yes (active), No (inactive)

{"compound": "COc1c(N2CCNC(C)C2)c(F)cc2c(=O)c(C(=O)O)cn(C3CC3)c12 (centres undefined)", "category": "No"}
{"compound": "CN1[C@@H]2CC[C@H]1CC(OC(=O)C(O)c1ccccc1)C2 (some centres undefined)", "category": "No"}
{"compound": "C=C[Si](OC(C)=O)(OC(C)=O)OC(C)=O", "category": "No"}
{"compound": "NC(=O)NC1N=C([O][Al])NC1=O (centres undefined)", "category": "No"}
{"compound": "O=C(O)Cc1csc(-c2ccc(Cl)cc2)n1", "category": "No"}
{"compound": "C[N+]1(C)CCCC(OC(=O)C(O)(c2ccccc2)c2ccccc2)C1 (centres undefined)", "category": "No"}
{"compound": "NC(=O)Cc1cccc2ccccc12", "category": "No"}
{"compound": "CC1=C(C/C=C(\\C)CCC[C@H](C)CCC[C@H](C)CCCC(C)C)C(=O)c2ccccc2C1=O", "category": "No"}
{"compound": "CC(COc1ccccc1)NN (centres undefined)", "category": "No"}
{"compound": "CC(C)(C)OC(=O)c1cccc(N)c1", "category": "Yes"}
{"compound": "O=C(O)CNC(=O)c1ccc(CO)o1", "category": "No"}
{"compound": "COc1cc2c(cc1OC)-c1cc3ccc(OC)c(OC)c3c[n+]1CC2", "category": "No"}
{"compound": "CCCC(=O)O[C@]1(C(=O)CC)CC[C@H]2[C@@H]3CCC4=CC(=O)CC[C@]4(C)[C@H]3[C@@H](O)C[C@@]21C", "category": "Yes"}
{"compound": "C=CCCCCCCCCC(=O)OCC", "category": "No"}
{"compound": "Cc1coc2ccccc2c1=O", "category": "No"}
{"compound": "CC1(C)OC[C@@H](COC(=O)CCc2ccc(OC[C@@H](O)CNCCNC(=O)N3CCOCC3)cc2)O1", "category": "No"}
{"compound": "CCCCc1ccc2c(n1)[C@@H](c1ccc(OC)cc1C[C@H](C)C(=O)O)[C@H](C(=O)O)[C@H]2c1ccc2c(c1)OCO2", "category": "No"}
{"compound": "Cc1ccc(C(=O)Nc2ccc(S(=O)(=O)O)c3cc(S(=O)(=O)O)cc(S(=O)(=O)O)c23)cc1NC(=O)c1cccc(NC(=O)Nc2cccc(C(=O)Nc3cc(C(=O)Nc4ccc(S(=O)(=O)O)c5cc(S(=O)(=O)O)cc(S(=O)(=O)O)c45)ccc3C)c2)c1", "category": "No"}
{"compound": "CC(C)(C#N)Nc1nc(Cl)nc(NC2CC2)n1", "category": "Yes"}
{"compound": "Cc1ccc(-c2ncc(Cl)cc2-c2ccc(S(C)(=O)=O)cc2)cn1", "category": "No"}
{"compound": "O=S(=O)(O)c1cccc2ccccc12", "category": "No"}
{"compound": "CC1=NN(c2cccc(S(=O)(=O)O)c2)C(=O)C1", "category": "No"}
{"compound": "CCCCS(=O)(=O)N[C@@H](Cc1ccc(OCCCCC2CCNCC2)cc1)C(=O)O", "category": "No"}
{"compound": "COC(=O)C1=C(C)NC(C)=C(C(=O)OC(C)C)C1c1cccc2nonc12 (centres undefined)", "category": "Yes"}
{"compound": "CCNS(=O)(=O)c1ccc(C)cc1", "category": "No"}
{"compound": "CC(=O)NC(=O)c1ccccc1O", "category": "No"}
{"compound": "CCCn1cc[n+](C)c1C", "category": "No"}
{"compound": "[K+]", "category": "Yes"}
{"compound": "N[C@H](C(=O)O)[C@@H](O)c1ccc(O)c(O)c1", "category": "No"}
{"compound": "Nc1ccncc1N", "category": "No"}
{"compound": "COCCOC[C@H](CC1(C(=O)NC2CCC(C(=O)O)CC2)CCCC1)C(=O)Oc1ccc2c(c1)CCC2 (some centres undefined)", "category": "No"}
{"compound": "C=COCC1CCC(COC=C)CC1 (centres undefined)", "category": "No"}
{"compound": "CCN1C=CN(C)C1C (centres undefined)", "category": "No"}
{"compound": "CCCCOCCOC(=O)COc1cc(Cl)c(Cl)cc1Cl", "category": "No"}
{"compound": "CCOC(=O)COC(=O)c1ccccc1C(=O)OCC", "category": "No"}
{"compound": "CCCCCC(C)N (centres undefined)", "category": "No"}
{"compound": "CNCCO", "category": "No"}
{"compound": "CCC(C(=O)NC(=O)NC(C)=O)c1ccccc1 (centres undefined)", "category": "No"}
{"compound": "COc1ccccc1OCC1CNC(=O)O1 (centres undefined)", "category": "No"}
{"compound": "NC(=O)N[C@@H](CCC(=O)O)C(=O)O", "category": "No"}
{"compound": "C[N+]1(C)[C@@H]2CC(OC(=O)[C@H](CO)c3ccccc3)C[C@H]1[C@@H]1O[C@@H]12 (some centres undefined)", "category": "No"}
{"compound": "O=S(=O)(O)c1cccc2c(S(=O)(=O)O)cccc12", "category": "No"}
{"compound": "CN(C)CCN(C)CCN(C)C", "category": "Yes"}
{"compound": "CCCCN(CCC(=O)OCC)C(C)=O", "category": "No"}
{"compound": "C[C@@H]1C[C@H]2[C@@H]3C[C@H](F)C4=CC(=O)C(Cl)=C[C@]4(C)[C@@]3(F)[C@@H](O)C[C@]2(C)[C@@]1(O)C(=O)CO", "category": "Yes"}
{"compound": "C1CCC2(CCCCO2)OC1", "category": "No"}
{"compound": "CC(C)(C)C(=O)c1ccccc1", "category": "No"}
{"compound": "O=C(O)CCSCCC(=O)O", "category": "No"}
{"compound": "CCCCCCCCCCCCCCCCCCO", "category": "No"}
